compounds and their reported Activity
# Tested on: Candida albicans
# assay-details: Antifungal activity against Candida albicans ATCC 10231 assessed as ethanol level after 18 hrs by [1H] NMR spectroscopic analysis
# Assay type: functional
The reply should contain only the number, in µg/mL.

> print(dat)
                                   compound  quantity.measured  reading
1  C[C@@H](c1ncncc1F)[C@@](Cn1cncn1)(OC(=O)c1ccc([N+](=O)[O-])cc1)c1ccc(F)cc1F [VORICONAZOLE P-NITRO BENZOATE]           Activity        8
2  C[C@@H](c1ncncc1F)[C@](O)(Cn1cncn1)c1ccc(F)cc1F           Activity        2
3  C[C@@H](c1ncncc1F)[C@@](Cn1cncn1)(OC(=O)c1ccccc1)c1ccc(F)cc1F [VORICONAZOLE BENZOATE]           Activity        5
4  Cc1ccc(C(=O)O[C@@](Cn2cncn2)(c2ccc(F)cc2F)[C@@H](C)c2ncncc2F)cc1 [VORICONAZOLE TOLUATE]           Activity        5

Would you kindly look at the next entry?
Value of Activity reported for the compound COc1ccc(C(=O)O[C@@](Cn2cncn2)(c2ccc(F)cc2F)[C@@H](C)c2ncncc2F)cc1 [VORICONAZOLE P-METHOXY BENZOATE] is 3
